- measuredOn: SARS-CoV-2 Spike Protein (RBD) (R319-F541).hFc (SARS-CoV-2)
- experimentDescription: Luminex beads, supernatant
measuredMetric: MFI (MFI)
Express the result in MFI but write the number alone.

Query block: What measured MFI goes with mAb10938 (antibody, V domains shown) VH: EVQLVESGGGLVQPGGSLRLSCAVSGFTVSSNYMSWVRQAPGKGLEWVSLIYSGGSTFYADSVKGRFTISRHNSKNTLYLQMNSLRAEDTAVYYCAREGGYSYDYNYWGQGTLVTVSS VL: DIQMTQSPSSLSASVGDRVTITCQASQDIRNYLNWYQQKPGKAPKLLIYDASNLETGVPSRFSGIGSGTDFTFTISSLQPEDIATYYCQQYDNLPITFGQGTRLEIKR ?
Result block: 29600

Query block: Recorded MFI for mAb10939 (antibody, V domains shown) VH: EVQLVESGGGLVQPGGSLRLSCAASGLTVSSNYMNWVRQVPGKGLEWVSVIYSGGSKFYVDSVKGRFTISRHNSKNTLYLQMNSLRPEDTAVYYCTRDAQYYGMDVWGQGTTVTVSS VL: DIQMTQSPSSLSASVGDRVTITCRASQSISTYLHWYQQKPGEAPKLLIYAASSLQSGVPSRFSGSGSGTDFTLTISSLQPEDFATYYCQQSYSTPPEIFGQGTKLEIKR , please?
Result block: 32900

Query block: I would be grateful if you could share the reported MFI for mAb10921 (antibody, V domains shown) VH: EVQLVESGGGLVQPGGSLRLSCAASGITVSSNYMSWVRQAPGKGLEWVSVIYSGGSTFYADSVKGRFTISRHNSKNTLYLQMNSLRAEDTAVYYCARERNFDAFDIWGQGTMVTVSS VL: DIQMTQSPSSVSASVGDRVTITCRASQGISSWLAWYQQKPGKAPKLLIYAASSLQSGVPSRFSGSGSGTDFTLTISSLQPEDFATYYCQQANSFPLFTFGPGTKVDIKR .
Result block: 22300

Query block: Which measured MFI value corresponds to mAb10971 (antibody, V domains shown) VH: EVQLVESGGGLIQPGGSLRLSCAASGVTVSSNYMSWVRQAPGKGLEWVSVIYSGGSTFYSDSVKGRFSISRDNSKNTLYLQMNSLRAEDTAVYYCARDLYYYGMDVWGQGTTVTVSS VL: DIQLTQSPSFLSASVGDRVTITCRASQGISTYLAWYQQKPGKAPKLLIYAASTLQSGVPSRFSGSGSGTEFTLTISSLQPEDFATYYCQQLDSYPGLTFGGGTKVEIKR ?
Result block: 30000

Next:
Query block: Look up MFI: mAb10914 (antibody, V domains shown) VH: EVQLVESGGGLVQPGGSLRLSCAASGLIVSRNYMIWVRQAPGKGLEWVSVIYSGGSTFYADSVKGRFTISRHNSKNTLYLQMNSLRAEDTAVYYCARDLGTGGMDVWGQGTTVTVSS VL: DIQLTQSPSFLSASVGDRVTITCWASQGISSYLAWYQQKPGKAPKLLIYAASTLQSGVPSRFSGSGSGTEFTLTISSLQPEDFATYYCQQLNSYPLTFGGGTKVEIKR
Result block: 30500

Query block: // MFI lookup, key: mAb10957 (antibody, V domains shown) VH: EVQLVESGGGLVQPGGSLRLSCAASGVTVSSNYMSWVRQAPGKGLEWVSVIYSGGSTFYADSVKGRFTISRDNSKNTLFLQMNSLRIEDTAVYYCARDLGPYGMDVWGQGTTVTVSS VL: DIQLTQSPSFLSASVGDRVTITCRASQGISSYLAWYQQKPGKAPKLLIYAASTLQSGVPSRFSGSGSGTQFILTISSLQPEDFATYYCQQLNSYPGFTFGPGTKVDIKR
Result block: 22600

Query block: Dear colleague, I am looking for the recorded MFI of the following binder: mAb10955 (antibody, V domains shown) VH: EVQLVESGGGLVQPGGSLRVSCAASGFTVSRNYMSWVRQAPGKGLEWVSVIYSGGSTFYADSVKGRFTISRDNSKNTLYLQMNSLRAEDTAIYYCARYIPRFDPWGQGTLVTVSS VL: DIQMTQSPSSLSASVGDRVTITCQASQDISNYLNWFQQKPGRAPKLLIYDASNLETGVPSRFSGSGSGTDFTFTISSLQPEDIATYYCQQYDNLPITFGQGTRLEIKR
Result block: 31200
